# Species on record: Rattus norvegicus
# EXPERIMENTAL_DETAILS: DrugMatrix - Regimen: Daily Repeat
# Type: toxicity, organism-based, Sprague-Dawley
# Parameters: regimen Daily Repeat, gender Male, age 6-8 weeks
# STUDY_CONDITIONS: in vivo, iv, 0 mg/kg, 72 h, tissue Plasma, dose level Control, time 3 day, vehicle 100 % SALINE
ASSAY_METRIC: CHOLESTEROL (mg/dL)
Give bare numbers, in mg/dL.

Example cases with answers are listed next.
O=C(O)P(=O)(O)O [FOSCARNET]: 67.33
N=C(N)c1ccc(OCCCCCOc2ccc(C(=N)N)cc2)cc1 [PENTAMIDINE]: 67.17
COc1cccc2c1C(=O)c1c(O)c3c(c(O)c1C2=O)C[C@@](O)(C(C)=O)C[C@@H]3O[C@H]1C[C@H](N)[C@H](O)[C@H](C)O1 [DAUNORUBICIN]: 63.67

Quick one: give me CHOLESTEROL for each item below, same order please.
1. O=c1[nH]c(=O)n([C@H]2C[C@H](O)[C@@H](CO)O2)cc1F [FLOXURIDINE]
2. C[N+](C)(C)CCOC(=O)CCC(=O)OCC[N+](C)(C)C.[Cl-].[Cl-] [SUCCINYLCHOLINE CHLORIDE]

74.17
67.17

====

# Species: Rattus norvegicus
# EXPERIMENTAL_DETAILS: DrugMatrix - Regimen: Daily Repeat
# Format: toxicity, organism-based, Sprague-Dawley
# Design: regimen Daily Repeat, gender Male, age 6-8 weeks
# STUDY_CONDITIONS: in vivo, po, 10 mg/kg, […], tissue Blood, route oral GAVAGE, dose level Low, time 14 day, vehicle .5 % CMC
ASSAY_METRIC: ABSOLUTE EOSINOPHIL (cells/µL)
One number for each entry, in cells/µL.

Supply measured ABSOLUTE EOSINOPHIL of CN(C)CCN(Cc1cccs1)c1ccccn1 in your reply.
66.7

====

Exercise: for every item that follows, state its recorded LIPASE.
# Species: Rattus norvegicus
# EXPERIMENTAL_DETAILS: DrugMatrix - Regimen: Daily Repeat
# Format: toxicity, organism-based, Sprague-Dawley
# Set-up: regimen Daily Repeat, gender Male, age 6-8 weeks
# STUDY_CONDITIONS: in vivo, po, 0 mg/kg, 120 h, tissue Plasma, route oral GAVAGE, dose level Control, time 5 day, vehicle 100 % WATER
Answers are plain numbers, in u/L.

Example cases with answers are listed next.
CNC1=Nc2ccc(Cl)cc2C(c2ccccc2)=[N+]([O-])C1 [CHLORDIAZEPOXIDE]: 9.17
CCCC(C)C1(CC)C(=O)NC(=O)NC1=O (stereo not given): 11.5
NC12CC3CC(CC(C3)C1)C2: 10.83
CN(C)C(=O)Oc1cccc([N+](C)(C)C)c1.[Br-] [NEOSTIGMINE BROMIDE]: 11.5

Turning now to a further compound:
Supply measured LIPASE of C#Cc1cccc(Nc2ncnc3cc(OCCOC)c(OCCOC)cc23)c1 in your reply.
4.83

====

# Species: Rattus norvegicus
# EXPERIMENTAL_DETAILS: DrugMatrix - Regimen: Daily Repeat
# Type: toxicity, organism-based, Sprague-Dawley
# Parameters: regimen Daily Repeat, gender Male, age 6-8 weeks
# STUDY_CONDITIONS: in vivo, iv, 0 mg/kg, 120 h, tissue Blood, dose level Control, time 5 day, vehicle 100 % SALINE
ASSAY_METRIC: NEUTROPHIL (%)
Numbers only, in %.

Example cases with answers are listed next.
O=C(O)P(=O)(O)O: 7.17
O=c1[nH]c(=O)n([C@H]2C[C@H](O)[C@@H](CO)O2)cc1F: 8.17
COc1cccc2c1C(=O)c1c(O)c3c(c(O)c1C2=O)C[C@@](O)(C(C)=O)C[C@@H]3O[C@H]1C[C@H](N)[C@H](O)[C@H](C)O1: 6.17
N=C(N)c1ccc(OCCCCCOc2ccc(C(=N)N)cc2)cc1: 11.17

Turning now to a further compound:
Supply measured NEUTROPHIL of C[N+](C)(C)CCOC(=O)CCC(=O)OCC[N+](C)(C)C.[Cl-].[Cl-] [SUCCINYLCHOLINE CHLORIDE] in your reply.
11.17
